Target: TNFα / TNFα receptor (TNFα R1/Fc) (Homo sapiens, UniProt P01375)
Construct: purchased R&D Systems
Sequence (P01375 77-233 limits assumed, species assumed): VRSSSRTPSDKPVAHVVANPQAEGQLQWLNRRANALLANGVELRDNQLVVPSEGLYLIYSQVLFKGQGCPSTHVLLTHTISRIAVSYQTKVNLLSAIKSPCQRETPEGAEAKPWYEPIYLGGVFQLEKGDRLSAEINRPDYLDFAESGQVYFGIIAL
Assay: Inhibition of binding of TNFα to the TNFα receptor (plate ELISA competition)
Settings: Table 2; read-out: Activity (IC50, inhibition of TNFα binding to TNFα R1/Fc)
Protocol: The compounds listed in Table 2 below were assayed for ability to inhibit binding of TNFα to the TNFα receptor (TNFα R1/Fc). The assays were performed as described in the following procedure: TNFα (R&D Systems) was coated on high binding plate wells (Corning 96-well) at a single uniform concentration of 15 nM, 100 μL/well in PBS. […] The TMB reaction was stopped with the addition of 0.5N HCl and then the plate was read for absorbance at 450 nm.
Numbered stars: 1 amine (or outer) side, 2 acyl side, 3 side chain; on linkers, the order of the positions; unused ones are H or OH. Bridge positions count the residues as written; N and C are the ends. Square brackets hold non-standard residues; d marks the D form. Peptide text beside a SMILES is read from it. Bip = N[C@@H](Cc1ccc(-c2ccccc2)cc1)C(=O)O; Phe(4-NH2) = Nc1ccc(C[C@H](N)C(=O)O)cc1; d2Thi = N[C@H](Cc1cccs1)C(=O)O; Suc = O=C(CCC(=O)[*:2])[*:1]; βAla = NCCC(=O)O
Documented IC50 across a set of compounds

Please review the entries below; each comes with its answer.
{"COMPOUND": "O=C1COc2ccc(cc2)C[C@@H](C(=O)N[C@H](Cc2ccccc2)C(=O)O)NC(=O)[C@H](Cc2ccc(O)cc2)NC(=O)[C@@H](Cc2ccc(-c3ccccc3)cc2)NC(=O)[C@H](Cc2cccs2)N1 [Compound 565]", "READING": "< 10 µM"}
{"COMPOUND": "O=C(O)CNC(=O)CNC(=O)[C@@H]1Cc2ccc(cc2)OCC(=O)N[C@@H](Cc2cccs2)C(=O)N[C@H](Cc2ccc(-c3ccccc3)cc2)C(=O)N[C@@H](CCc2ccccc2)C(=O)N1 [Compound 479]", "READING": "< 10 µM"}
{"COMPOUND": "O=C1COc2ccc(cc2)C[C@@H](C(=O)N[C@@H](CO)C(=O)O)NC(=O)[C@H](CCc2ccccc2)NC(=O)[C@@H](Cc2ccc(-c3ccccc3)cc2)NC(=O)[C@H](Cc2ccc(-c3ccncc3)cc2)N1 [Compound 583]", "READING": "< 10 µM"}

Query: Item under review: O=C(O)[C@H]1Cc2ccc(cc2)NC(=O)[C@H](O)[C@@H](O)C(=O)N[C@H](Cc2cccs2)C(=O)N[C@H](Cc2ccc(-c3ccccc3)cc2)C(=O)N[C@H](Cc2ccccc2)C(=O)N1 [Compound 276] . Reported IC50?
Response: > 100 µM

Query: Record: O=C(O)CCNC(=O)[C@@H]1Cc2ccc(cc2)NC(=O)CCC(=O)N[C@H](Cc2cccs2)C(=O)N[C@@H](Cc2ccc(-c3ccccc3)cc2)C(=O)N[C@H](Cc2ccccc2)C(=O)N1 [Compound 21] ([d2Thi][Bip][dF][Phe(4-NH2)][βAla]-OH; linker N-4 via Suc)
Response: < 10 µM
